Values from patent US20160297884A1

Here, each record is paired with measured koff data.
- TEST_SYSTEM: T1, Cynomolgus monkey BCMA (cynomolgus monkey)
- T1 construct: Soluble analyte in SPR; also called cyBCMA; Cyno BCMA
- ASSAY_INFO: SPR, IgG immobilised, cyno BCMA analyte
// units = s⁻¹; emit number, no label

>  <BINDER>
A02_Rd4_6nM_C22 (antibody, V domains shown, IgG) VH: EVQLLESGGGLVQPGGSLRLSCAASGFTFSSYAMNWVRQAPGKGLEWVSAVLDSGGSTYYADSVKGRFTISRDNSKNTLYLQMNSLRAEDTAVYYCARYWPMTPWGQGTLVTVSS VL: EIVLTQSPGTLSLSPGERATLSCRASQSVSSSYLAWYQQKPGQAPRLLMYDASIRATGIPDRFSGSGSGTDFTLTISRLEPEDFAVYYCQQYQVWPLTFGQGTKVEIK

>  <koff (s⁻¹)>
0.000324

$$$$
>  <BINDER>
A02_Rd4_0.6nM_C01 (antibody, V domains shown, IgG; also called P5AC1) VH: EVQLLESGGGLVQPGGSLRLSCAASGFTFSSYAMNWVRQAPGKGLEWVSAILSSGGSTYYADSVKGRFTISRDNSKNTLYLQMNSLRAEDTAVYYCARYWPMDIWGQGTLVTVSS VL: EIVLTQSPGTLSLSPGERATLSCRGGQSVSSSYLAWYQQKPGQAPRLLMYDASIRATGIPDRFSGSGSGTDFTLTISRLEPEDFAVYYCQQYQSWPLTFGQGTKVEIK

>  <koff (s⁻¹)>
0.00157

$$$$
>  <BINDER>
C01_Rd4_6nM_C26 (antibody, V domains shown, IgG) VH: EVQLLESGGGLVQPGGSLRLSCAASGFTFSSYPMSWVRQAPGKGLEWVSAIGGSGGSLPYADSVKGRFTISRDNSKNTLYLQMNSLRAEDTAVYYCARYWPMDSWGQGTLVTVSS VL: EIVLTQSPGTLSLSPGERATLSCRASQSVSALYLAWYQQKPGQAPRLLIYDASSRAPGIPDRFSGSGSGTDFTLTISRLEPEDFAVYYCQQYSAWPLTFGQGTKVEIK

>  <koff (s⁻¹)>
0.00199

$$$$
>  <BINDER>
A02_Rd4_6nM_C19 (antibody, V domains shown, IgG) VH: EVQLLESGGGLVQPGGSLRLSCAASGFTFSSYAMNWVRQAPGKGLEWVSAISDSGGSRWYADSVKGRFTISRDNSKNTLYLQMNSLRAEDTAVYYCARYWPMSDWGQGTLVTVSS VL: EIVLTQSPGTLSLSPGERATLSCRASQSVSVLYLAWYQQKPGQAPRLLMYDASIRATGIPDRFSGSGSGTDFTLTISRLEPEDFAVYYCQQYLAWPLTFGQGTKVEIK

>  <koff (s⁻¹)>
0.000661

$$$$

Suppose we examine the binder C01_Rd4_0.6nM_C09 (antibody, V domains shown, IgG) VH: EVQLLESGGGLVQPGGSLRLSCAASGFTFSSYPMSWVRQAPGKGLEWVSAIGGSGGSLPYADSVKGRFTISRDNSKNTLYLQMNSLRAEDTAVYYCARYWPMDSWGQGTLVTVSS VL: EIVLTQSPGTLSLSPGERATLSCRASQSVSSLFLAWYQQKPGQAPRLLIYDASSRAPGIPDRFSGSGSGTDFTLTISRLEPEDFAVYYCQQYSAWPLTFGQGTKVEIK ; what koff value has been reported?
0.00936
